# System: K4 kissing-loop RNA reporter
# Measurement protocol: apparent KD of K4 kissing-loop reporter; higher = weaker reporter binding
# Measurement parameters: Eterna round: R107; input ligand: theophylline 20 uM
Outcome: 1 for apparent KD of K4 kissing-loop reporter of at least 300 nM; 0 for anything lower.

Below are worked cases with known answers.
Chain: CGUUUAUAGCAGGAUACCAGUACCCAUUAUGUACGUUUAUAGUAGAGUGAUGUUCUAAAGUACCCUUGGCAGCUUCCUGUGUCCC [ExTheophylB.Ab]
Assayed target: K4 kissing-loop RNA reporter
Class name: 0
//
Chain: GUGGCACGAAAGUGCCACGCAUCCUCUGGCUAGGAUAUCUGGAAACAGAGAAGGAGCUCAUGAGUGAUGUUCAUCUAGAGGAUGC
Assayed target: K4 kissing-loop RNA reporter
Class name: 1
//
Chain: AAAAUAAAGGAGUGAUGUUCCAUAACGGAUACCAGCCACGAAAGUGGCCCUUGGCAGCUGUGCCAGUGGACGAAUAACGUCCACA [#OpenEnded 6 #StaticStem #K4Early]
Assayed target: K4 kissing-loop RNA reporter
Class name: 0
//
Chain: UAGUCCUAGUGAUCGUUAUCACGUGGUGGGCGAGGACCGGUACGGCCGCCACUCGACUAUGCAGUGAUGUUGCAAUCCGGACAAU [Exclusion - Tryptophan A (Freestyle 15)]
Assayed target: K4 kissing-loop RNA reporter
Class name: 1
//
Chain: AAGUCAUAUAGAAGGAGCGUGUUUUUUAAUUUGUUUUCAUGAUCGAGUGAUGUUCGAUAUACACAGGUAGGUCGCUGUAUAAUAA [hbob_SS_Arginine_B_2t142]
Assayed target: K4 kissing-loop RNA reporter;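 further: bound reporter read as fluorescence of individual clusters on recovered sequencing chips by microscopy, with normalized cluster intensities fitted with a binding model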
Class name: 0

QUERY: hey, is apparent KD of K4 kissing-loop reporter for this one >= 300 nM? UUUUAAAUAUCUGAUACCAGAGCGAAUAUAUGUAGUGAUGUUAUAUACAAAAUAAAUAAGCUCCCUUGGCAGCAGUAUUAAUUUU [Astros-ExyTheB#?#ED14.66]
RESULT: 1

---

# Test system: MS2 coat protein
# Measurement protocol: apparent KD of MS2 coat protein; higher = weaker reporter binding
# Measurement parameters: Eterna round: R107; input ligand: arginine 13.2 mM
Readout label: apparent KD of MS2 coat protein (nM)
Provide only the numeric value, understood in nM.

Chain: UGCAUCAUAAUCAUGUAGGUGCUAGGUGAUACCAGCAUCGAAAGAUGCCCUUGGCAGCACCAACAUGAGGAUCACCCAUGUAAUA [(MT)''-(M)'-(T')-(Theo)-(Ms2)_Design1/22_1]
Endpoint unit: nM
apparent KD of MS2 coat protein: 48.4

QUERY: // returns reported apparent KD of MS2 coat protein for input GCUGCCAUACGAAGGAGCGCUGUUGCAAUGAGGCGAACAUGAGGAUCACCCAUGUGGCAAAAGCAGGUAGGUCGCGUAUGGCAGC [EAB #17]
RESULT: 20.4

QUERY: I have this sequence here, AUUCAGAGAUCACAUGAGGAUCACCCAUGUCGAGGACCGGUACGGCCGCCACUCGCGGCGGUGAAAAUAGAUACAAAGUAUCUAU [Ex_TrypA - Vienna approves #2] , and I need its recorded apparent KD of MS2 coat protein.
RESULT: 25.5

QUERY: Quick check: apparent KD of MS2 coat protein of GCGAUGGAGCGAAGGAGCGUGCUAGUACAUGAGGAUCACCCAUGUGAGUCGCAGCGCUAAGCACAGGUAGGUCGCGCUCCAUCGC [EAB NP+V+V2 #12] ?
RESULT: 31.1

QUERY: Record request: apparent KD of MS2 coat protein value, item CCAUGCAGGUCGGCCGCCACUACACACAUGAGGAUCACCCAUGUAGUUACUGGGUGAAGUGGCAGUAGGACCGGGACCUGCACAC [Brourdmod20]
RESULT: 84

QUERY: Data request, read-out apparent KD of MS2 coat protein, for AAGAUAAGUACUGAUACCAGAGACAUGAGGAUCACCCAUGUCAAAUAAUAAUACCUCAGACUCCCUUGGCAGCAGGAUAAAUGAG [Exclusion Theophylline B GF1]
RESULT: 10.9
